System: Sporotrichum schenkii CBS.34035
PROTOCOL_SUMMARY: minimal inhibitory concentration in Sabouraud medium
Format: cell-based
STATED_CONDITIONS: Sporotrichum, CBS.34035, 144 h, 144 hours
From the text: Sporotrichum schenkii CBS.34035 As a medium Saboroud medium was employed.
OBSERVABLE: MIC
Returns: string containing the number followed by the unit.

Some compounds with recorded MIC:
                                   compound    result
0  COc1ccc(N2C(=O)CC(S(=O)(=O)C3CCCCC3)C2=O)cc1 (centres unmarked)   10 mg/L
1  COC(=O)c1ccc(N2C(=O)CC(S(=O)(=O)C3CCCCC3)C2=O)cc1OC(C)=O (centres unmarked)  100 mg/L

Sample O=C1CC(S(=O)(=O)C2CCCCC2)C(=O)N1c1ccccc1[N+](=O)[O-] (centres unmarked) — what was its MIC? 50 mg/L

Sample O=C1CC(S(=O)(=O)C2CCCCC2)C(=O)N1c1cccc([N+](=O)[O-])c1 (centres unmarked) — what was its MIC? 75 mg/L

Sample Cc1ccccc1N1C(=O)CC(S(=O)(=O)C2CCCCC2)C1=O (centres unmarked) — what was its MIC? 25 mg/L

====

PROTOCOL_SUMMARY: LD50, intraperitoneal
STATED_CONDITIONS: mouse, in vivo, ip, intraperitoneally, male mice
OBSERVABLE: LD50 (mg/kg)
Reply with just the number (in mg/kg).

Sample O=C1CC(S(=O)(=O)C2CCCCC2)C(=O)N1c1ccccc1 (stereo not shown) — what was its LD50? 461

====

Collected MIC values appear next to each entry.
Test system: Saccharomyces cerevisiae OKI.1282
PROTOCOL_SUMMARY: minimal inhibitory concentration in Sabouraud medium
Type: cell-based
STATED_CONDITIONS: Saccharomyces cerevisiae, OKI.1282, 24 h, 24 hours
Reply with just the number (in µg/mL).

In [3]: df
Out[3]:
                                   compound  observable  number
0  Cc1ccccc1N1C(=O)CC(S(=O)(=O)C2CCCCC2)C1=O (stereo not drawn)         MIC      25
1  O=C1CC(S(=O)(=O)C2CCCCC2)C(=O)N1c1ccccc1Cl (stereo not drawn)         MIC      25
2  O=C1CC(S(=O)(=O)C2CCCCC2)C(=O)N1c1cccc([N+](=O)[O-])c1 (stereo not drawn)         MIC      75
3  O=C1CC(S(=O)(=O)C2CCCCC2)C(=O)N1c1cccc(Cl)c1 (stereo not drawn)         MIC      10
4  O=C1CC(S(=O)(=O)C2CCCCC2)C(=O)N1c1ccccc1 (stereo not drawn)         MIC      50

Sample COc1ccc(N2C(=O)CC(S(=O)(=O)C3CCCCC3)C2=O)cc1 (stereo not drawn) — what was its MIC? 25

====

Tested on: Trichophyton rubrum CBS.30338
PROTOCOL_SUMMARY: minimal inhibitory concentration in Sabouraud medium
Assay type: cell-based
STATED_CONDITIONS: Trichophyton rubrum, CBS.30338, 144 h, 144 hours
Excerpt: Trichophyton rubrum CBS.30338 As a medium Saboroud medium was employed.
OBSERVABLE: MIC
Returns: string containing the number followed by the unit.

Some compounds with recorded MIC:
                                   compound                      tested_on  observable    result
0  Cc1cccc(N2C(=O)CC(S(=O)(=O)C3CCCCC3)C2=O)c1 (stereo not shown)  Trichophyton rubrum CBS.30338         MIC  10 µg/mL
1  COc1ccc(N2C(=O)CC(S(=O)(=O)C3CCCCC3)C2=O)cc1 (stereo not shown)  Trichophyton rubrum CBS.30338         MIC  10 µg/mL
2  O=C1CC(S(=O)(=O)C2CCCCC2)C(=O)N1c1ccccc1 (stereo not shown)  Trichophyton rubrum CBS.30338         MIC  10 µg/mL
3  O=C1CC(S(=O)(=O)C2CCCCC2)C(=O)N1c1ccccc1Cl (stereo not shown)  Trichophyton rubrum CBS.30338         MIC  10 µg/mL

Form field - read-out: MIC; system: Trichophyton rubrum CBS.30338; submitted item: O=C1CC(S(=O)(=O)C2CCCCC2)C(=O)N1c1cccc([N+](=O)[O-])c1 (stereo not shown) 5 µg/mL

Form field - read-out: MIC; system: Trichophyton rubrum CBS.30338; submitted item: Cc1ccccc1N1C(=O)CC(S(=O)(=O)C2CCCCC2)C1=O (stereo not shown) 25 µg/mL

Form field - read-out: MIC; system: Trichophyton rubrum CBS.30338; submitted item: Cc1ccc(N2C(=O)CC(S(=O)(=O)C3CCCCC3)C2=O)cc1 (stereo not shown) 5 µg/mL

Form field - read-out: MIC; system: Trichophyton rubrum CBS.30338; submitted item: O=C1CC(S(=O)(=O)C2CCCCC2)C(=O)N1 (stereo not shown) 75 µg/mL

Form field - read-out: MIC; system: Trichophyton rubrum CBS.30338; submitted item: COC(=O)c1ccc(N2C(=O)CC(S(=O)(=O)C3CCCCC3)C2=O)cc1OC(C)=O (stereo not shown) 25 µg/mL

Form field - read-out: MIC; system: Trichophyton rubrum CBS.30338; submitted item: O=C1CC(S(=O)(=O)C2CCCCC2)C(=O)N1c1cccc(Cl)c1 (stereo not shown) 2.5 µg/mL

Form field - read-out: MIC; system: Trichophyton rubrum CBS.30338; submitted item: O=C1CC(S(=O)(=O)C2CCCCC2)C(=O)N1c1ccccc1[N+](=O)[O-] (stereo not shown) 50 µg/mL

Form field - read-out: MIC; system: Trichophyton rubrum CBS.30338; submitted item: CC(=O)c1ccc(N2C(=O)CC(S(=O)(=O)C3CCCCC3)C2=O)cc1 (stereo not shown) 25 µg/mL

Form field - read-out: MIC; system: Trichophyton rubrum CBS.30338; submitted item: O=C1CC(S(=O)(=O)C2CCCCC2)C(=O)N1c1ccc([N+](=O)[O-])cc1 (stereo not shown) 75 µg/mL

====

System: Sporotrichum schenkii CBS.34035
PROTOCOL_SUMMARY: minimal inhibitory concentration in Sabouraud medium
Assay type: cell-based
STATED_CONDITIONS: Sporotrichum, CBS.34035, 144 h, 144 hours
OBSERVABLE: MIC (µg/mL)
Reply with just the number (in µg/mL).

                                   compound  observable  unit_abbrev  number
0  Cc1cccc(N2C(=O)CC(S(=O)(=O)C3CCCCC3)C2=O)c1 (stereo not drawn)         MIC        µg/mL      25
1  O=C1CC(S(=O)(=O)C2CCCCC2)C(=O)N1c1ccccc1Cl (stereo not drawn)         MIC        µg/mL      50
2  O=C1CC(S(=O)(=O)C2CCCCC2)C(=O)N1c1ccc([N+](=O)[O-])cc1 (stereo not drawn)         MIC        µg/mL      25
3  O=C1CC(S(=O)(=O)C2CCCCC2)C(=O)N1c1cccc(Cl)c1 (stereo not drawn)         MIC        µg/mL      25
4  CC(=O)c1ccc(N2C(=O)CC(S(=O)(=O)C3CCCCC3)C2=O)cc1 (stereo not drawn)         MIC        µg/mL      25

With those in mind, consider the next compound.
Sample O=C1CC(S(=O)(=O)C2CCCCC2)C(=O)N1 (stereo not drawn) — what was its MIC? 150

====

Collected MIC values appear next to each entry.
System: Trichophyton mentagrophytes CBS.50148
PROTOCOL_SUMMARY: minimal inhibitory concentration in Sabouraud medium
Assay type: cell-based
STATED_CONDITIONS: Trichophyton mentagrophytes, CBS.50148; read-out: Minimal inhibitory concentration inhibiting the growth
Reply with just the number (in µg/mL).

>>> print(df.to_string())
                                   molecule  observable  number
0  O=C1CC(S(=O)(=O)C2CCCCC2)C(=O)N1c1ccccc1 (stereo not shown)         MIC     2.5
1  Cc1ccc(N2C(=O)CC(S(=O)(=O)C3CCCCC3)C2=O)cc1 (stereo not shown)         MIC     2.5
2  O=C1CC(S(=O)(=O)C2CCCCC2)C(=O)N1 (stereo not shown)         MIC      50

Sample COC(=O)c1ccc(N2C(=O)CC(S(=O)(=O)C3CCCCC3)C2=O)cc1OC(C)=O (stereo not shown) — what was its MIC? 2.5

====

Tested on: Trichophyton mentagrophytes CBS.50148
PROTOCOL_SUMMARY: minimal inhibitory concentration in Sabouraud medium
Format: cell-based
STATED_CONDITIONS: Trichophyton mentagrophytes, CBS.50148, 144 h, 144 hours; read-out: minimal inhibitory concentration
Description: Trichophyton mentagrophytes CBS.50148 As a medium Saboroud medium was employed.
Values of MIC strictly less than 20 µg/mL map to fulfilled, and values of at least 20 µg/mL map to not fulfilled.

>>> df
                                   molecule  assigned_label
0  O=C1CC(S(=O)(=O)C2CCCCC2)C(=O)N1c1ccccc1 (stereo not shown)       fulfilled
1  Cc1cccc(N2C(=O)CC(S(=O)(=O)C3CCCCC3)C2=O)c1 (stereo not shown)   not fulfilled

Given O=C1CC(S(=O)(=O)C2CCCCC2)C(=O)N1c1cccc([N+](=O)[O-])c1 (stereo not shown) , is recorded MIC strictly lower than 20 µg/mL? fulfilled

Given COC(=O)c1ccc(N2C(=O)CC(S(=O)(=O)C3CCCCC3)C2=O)cc1OC(C)=O (stereo not shown) , is recorded MIC strictly lower than 20 µg/mL? fulfilled

Given O=C1CC(S(=O)(=O)C2CCCCC2)C(=O)N1c1cccc(Cl)c1 (stereo not shown) , is recorded MIC strictly lower than 20 µg/mL? fulfilled

Given O=C1CC(S(=O)(=O)C2CCCCC2)C(=O)N1 (stereo not shown) , is recorded MIC strictly lower than 20 µg/mL? not fulfilled

Given Cc1ccc(N2C(=O)CC(S(=O)(=O)C3CCCCC3)C2=O)cc1 (stereo not shown) , is recorded MIC strictly lower than 20 µg/mL? fulfilled

Given CC(=O)c1ccc(N2C(=O)CC(S(=O)(=O)C3CCCCC3)C2=O)cc1 (stereo not shown) , is recorded MIC strictly lower than 20 µg/mL? not fulfilled

Given O=C1CC(S(=O)(=O)C2CCCCC2)C(=O)N1c1ccccc1[N+](=O)[O-] (stereo not shown) , is recorded MIC strictly lower than 20 µg/mL? not fulfilled

Origin of values: patent US4364958A
